Some compounds, each annotated with its measured growth.
System: KM12 colon
procedure-details: NCI-60 one-dose screen, 48 h (100 = growth as untreated, 0 = no growth, -100 = all killed)
setup-conditions: 10 µM unless noted
The panel holds about 83,000 compounds, 20% with a hit somewhere; the sample as a whole holds those more often.
parameter-measured: growth (%)

Clc1ccc(/C=N\N2CCCCCC2)cc1 = 107
Cc1c(C(C)(C)O)cn2ncnc(Oc3ccc(NC(=O)Nc4ccc(Cl)c(C(F)(F)F)c4)cc3)c12 = 24.8
Cc1ccc(NC(=O)c2sc3nc(C)c(C(=O)c4ccccc4)cc3c2N)cc1 = 76.2
Clc1ccc(Nc2nc(Nc3ccc(Cl)cc3)nc(Nc3ccc(-c4cc(-c5cccc(Cl)c5)on4)cc3)n2)cc1 = 104
O=C1N=c2ccccc2=C1c1sc(=S)n(C2CC(=O)N(c3ccc(Cl)cc3)C2=O)c1O (centres undefined) = 100
COc1ccc2c(O)c(/C=C3\N=Nc4nc(C)ccc43)oc2c1CC1CCNCC1 = 38.2
CC1=CC=C(NC(=O)/C=C/c2ccccc2)CC1Nc1nccc(-c2cccnc2)n1 (centres undefined) = 26.4
Cn1cc(-c2nc3c(F)cc4[nH]ncc4c3c3c2CCCC3)c(C(F)F)n1 = 23.2
CCCCCCCCn1ccc2cc(NC(=O)CN3CCN(c4nc(C)cc(N5CCCCC5)n4)CC3)ccc21 = 86.4

###

System: NCI-H226 lung
procedure-details: NCI-60 one-dose screen, 48 h
setup-conditions: 10 µM unless noted
The panel holds about 83,000 compounds, 20% with a hit somewhere; the sample as a whole holds those more often. Calls of active or inactive are those of the source. The calls were made as follows: active = growth percent below 10; inactive = the rest.
Classes used: active, inactive

O=C1/C(=C/c2cn(-c3ccccc3)nc2-c2ccccc2)SC(=S)N1c1ccccc1 = inactive
O=c1c(/C=C/c2ccco2)nnc2sc(Nc3ccc(Cl)cc3)nn12 = inactive
O=C(NNC(=S)Nc1ccccc1)c1ccncc1 = inactive
COc1ccc(/C=C2\COc3ccc(O)c(O)c3C2=O)c(OC)c1OC = inactive
C=C1C(=O)O[C@H]2[C@H]1CC/C(COC(=O)NCCCCNC(=O)OC/C1=C/CC[C@@]3(C)O[C@H]3[C@H]3OC(=O)C(=C)[C@@H]3CC1)=C\CC[C@@]1(C)O[C@@H]21 = inactive
O=C1C(Nc2ccc(Cl)cc2)=C(I)C(=O)c2ncccc21 = inactive
O=C(/C=C/C12c3ccccc3C(c3ccccc31)C1C(=O)NC(=O)C12)c1ccncc1 (stereo not given) = inactive
CCCCn1c(C(=O)c2c[nH]c3ccccc23)n[nH]c1=S = inactive
O=C(Oc1ccc(CO[N+](=O)[O-])cc1)c1ccccc1 = active
COc1ccccc1/C=C/C(=O)/C=C/c1ccccc1OC = active

###

Tested on: KM12 colon
procedure-details: NCI-60 one-dose screen, 48 h
setup-conditions: 100 µM
About 83,000 compounds went through this panel and 20% of them were active in at least one assay; those are over-represented in the sample as a whole. The source made the active and inactive calls. Rule for the calls: active = growth percent below 10; inactive = the rest.
Classes used: Yes for active, No for inactive

CC(=O)/C=C/c1ccc(OCc2ccc(Cl)cc2)cc1 = No
COc1ccc(C(=O)/C=C/c2ccc(OCc3ccc(Cl)cc3)cc2)cc1OC = No
CC(=O)/C=C/c1ccc(N(C)Cc2ccc(C(C)(C)C)cc2)cc1 = Yes
CC(=O)/C=C/c1ccc(OCc2ccc(C(C)(C)C)cc2)cc1 = No

###

Tested on: RPMI-8226 leukemia
procedure-details: NCI-60 one-dose screen, 48 h (100 = growth as untreated, 0 = no growth, -100 = all killed)
setup-conditions: 10 µM unless noted
Compounds without any hit were thinned out: in the full panel of roughly 83,000, 20% have a hit. The source made the active and inactive calls. How the source made its calls: active means growth percent below 10; inactive means the rest.
parameter-measured: growth

NCCOCCOc1ccccc1 = 88.7% (inactive)
Cc1n(Cc2ccc3ccccc3c2)c(Cl)c(Cl)[n+]1Cc1ccc2ccccc2c1 = -16.8% (active)
O=C(c1ccc(Nc2nccc(NCCCNc3ccnc4cc(Cl)ccc34)n2)cc1)N1CCCCC1 = 81% (inactive)
COc1cc(CO)cc2cc3ccccc3nc12 = 101% (inactive)
Clc1ccc2c(NCCN3CCN(c4ccnc(N5CCCC5)n4)CC3)ccnc2c1 = -10.6% (active)
CC(C)(C)CC(N)=O = 107% (inactive)
COc1ccc2c(c1)CC[C@@H]1[C@@H]2CC[C@]2(C)C3C(=CCC4C(=O)N(c5ccccc5)C(=O)C43)C[C@@H]12 (stereo partly specified) = 61.2% (inactive)
Cc1ccc(NC(=O)N/C(N)=N/c2nc(=O)c3ccccc3s2)cc1 = 101% (inactive)
COc1ccc(C/C(C)=C(/c2ccc(OCCN3CCCC3)cc2)c2ccc(OC(=O)NCc3ccccc3)cc2)cc1 = 66.7% (inactive)
CSc1nnc(-c2cc3c([nH]c4ccccc43)c(-c3cccc(O)c3)n2)n1-c1ccc(C)cc1 = 19.3% (inactive)
C#CCn1cnc2cnc(Nc3cccc(NC(=O)CCl)c3)nc21 = -14.9% [6.25 µM] (active)
CN(C)CCNc1ncc(F)c(-c2cnc3cc(-c4cnn(C)c4)ccn23)n1 = 98.3% [0.005 µM] (inactive)
Nc1n[nH]c2cccc(C#Cc3cccc(C(=O)Nc4ccc(CN5CCOCC5)c(C(F)(F)F)c4)c3)c12 = 16.4% (inactive)
CONC1=Nc2cc(NC(N)=NCc3ccccc3)c(N(C)C3CCCCC3)cc2OC1 = 38.5% (inactive)
CC(=O)c1c(C)nc(SCC(=O)Nc2ccc(Cl)cc2)n1-c1ccc(Cl)cc1 = 71.1% (inactive)
O=C(Cc1ccc(F)cc1)c1ccccc1 = 95.9% (inactive)
Cc1cnc(C(=O)NNc2nc3sc4c(c3c(=O)[nH]2)C(C)CCC4)cn1 (stereo unspecified) = 29.3% (inactive)
CC/C(=C(/c1ccc(Cl)cc1)c1ccc(OCCN2CCOCC2)cc1)c1ccccc1 = 80.3% (inactive)
COC1=CC(c2ccc[nH]2)=N/C1=C\c1[nH]c(C)c(C(=O)Oc2ccccc2)c1C = -13.4% (active)
COc1ccc(-c2[nH]c3ccccc3c2-c2ccc(OC)cc2)cc1 = 24.1% (inactive)
Cc1ccc2c(c1)C(C)Cc1c(ncnc1-n1cnc3cc(C)ccc31)N2C (stereo unspecified) = -0.691% (active)

###

System: SNB-75 CNS
procedure-details: NCI-60 one-dose screen, 48 h
setup-conditions: 100 µM
The panel holds about 83,000 compounds, 20% with a hit somewhere; the sample as a whole holds those more often. Active and inactive are the calls of the source. How the source made its calls: active means growth percent below 10; inactive means the rest.
Classes used: class 1 (active), class 0 (inactive)

O=C(/C=C/c1cccc(Oc2ccc(Cl)cc2)c1)c1ccccc1 = class 1
COc1ccc(C(=O)/C=C/c2ccc(OCc3ccc(Cl)cc3)cc2)cc1OC = class 1
CCN(Cc1ccccc1)c1ccc(/C=C2\COc3ccccc3C2=O)cc1 = class 0
CC(=O)/C=C/c1ccc(OCc2ccc(C(C)(C)C)cc2)cc1 = class 1
CC(=O)/C=C/c1ccc(N(C)Cc2ccc(C(C)(C)C)cc2)cc1 = class 1
COc1ccc(C(=O)/C=C/c2ccc(OCc3cccc(C(F)(F)F)c3)c(OC)c2)cc1OC = class 1
CC(=O)/C=C/c1ccc(OCc2ccc(Cl)cc2)cc1 = class 0

###

Test system: COLO 205 colon
procedure-details: NCI-60 one-dose screen, 48 h (100 = growth as untreated, 0 = no growth, -100 = all killed)
setup-conditions: 10 µM unless noted
This is part of a sample that, as a whole, favours compounds with a hit. Of some 83,000 tested, about 20% had one in any assay. Activity calls are given as the source filed them. The calls were made as follows: active = growth percent below 10; inactive = the rest.
Some compounds, each annotated with its measured growth.
parameter-measured: growth

Cn1cc(C2=C(c3cccc4ccccc34)C(=O)NC2=O)c2cc(Br)ccc21 = 92% (inactive)
C=CCNC(=O)Cc1c(-c2ccc(OC)cc2)oc2c(OC)c3c(c(OC)c12)OCO3 = 117% (inactive)
CNC(=O)c1cc(Oc2ccc3nc(NC(=O)Nc4ccc(C(F)(F)F)cc4)sc3c2)ccn1 = 58.7% (inactive)
Oc1ccccc1C=Nc1ccc(N2CCN(c3ccccc3)CC2)cc1 = 93.7% (inactive)
COc1ccc(/C=C/C(=O)c2cc3c(N)c(C(=O)Nc4ccccc4Cl)sc3nc2C)cc1 = 69.8% (inactive)
COc1cc2nc3cc([N+](=O)[O-])ccc3c(NCCNCC(C)(C)O)c2cc1OC = -70.1% (active)
Nc1nc(Nc2ccc(F)cc2)nn1C(=O)c1cc(Cl)ccc1Cl = 83.8% (inactive)
O=C(Cn1cc(CN2CCN(c3ccnc4cc(Cl)ccc34)CC2)nn1)Nc1cccc([N+](=O)[O-])c1 = 101% (inactive)
O=C1/C(=C/c2cn(-c3ccccc3)nc2-c2ccccc2)SC(=S)N1c1ccc(Cl)cc1 = 111% (inactive)
COc1ccc(/C(C)=C(\c2ccc(OCCN3CCCCCC3)cc2)c2ccc(OC(=O)C3CCCCC3)cc2)cc1 = -63% (active)
O=C1/C(=C/c2ccccc2)CN(C(=O)C(Cl)Cl)C/C1=C\c1ccccc1 = -1.12% (active)
CCOC(=O)n1cc(-c2nonc2-c2cn(C)c3ccc(OC)cc23)c2cc(F)ccc21 = 90.9% (inactive)
Cn1ccnc1CN1CCSC(C(=O)Nc2ccccc2)C1 (stereo not drawn) = 112% (inactive)
CCn1cc(C(=O)NN=C2CCCC2)c(=O)c2ccc(C)nc21 = 104% (inactive)
O=C(/C=C/C12c3ccccc3C(c3ccccc31)C1C(=O)NC(=O)C12)c1ccncc1 (stereo not drawn) = 78.2% (inactive)
CCCNNC(=O)/C=C/c1ccc(CNCCc2c(C)[nH]c3ccccc23)cc1 = -55.7% [2.5 µM] (active)
NC(N)=NC(N)=NCCCc1ccco1 = 111% (inactive)
CC1=CC=C(NC(=O)/C=C/c2ccccc2)CC1Nc1nccc(-c2cccnc2)n1 (stereo not drawn) = 26.7% (inactive)
CCOC(=O)C1=C(C)NC(=O)NC1c1c(Cl)n(-c2ccccc2)c2ccccc12 (stereo not drawn) = 107% (inactive)
COc1ccc(N2CCN(S(=O)(=O)c3oc(-c4ccccc4)nc3C#N)CC2)cc1 = 80% (inactive)
CC1(C)C(N)=Nc2cc(OCCCN3Cc4ccc(OCCc5cn(CC(=O)N6CCC(CCN7CCCC7)CC6)nn5)cc4C3)c(OCC3CC3)cc21 = 108% (inactive)
C=C(C)[C@@H]1CC[C@]2(C)[C@H](CC(=O)N[C@H]3[C@@H]4C[C@](C)(C(=O)OC)CC[C@]4(C)CC[C@]32C)[C@@]1(C)CCC#N = 86.9% (inactive)
CC(=O)N1N=C(c2ccc(F)cc2)CC1c1sc(N(C)Cc2ccccc2)nc1Cl (stereo not drawn) = 98.7% (inactive)
COc1cc(N=Nc2ccc(O)c3ncccc23)c2ncccc2c1 = 52.4% (inactive)
Cc1ccc(/C=C(\C#N)c2cc3ccccc3[nH]2)cc1 = 32.4% (inactive)
O=C(CCCCCCCCC(=O)N/N=C\c1ccccc1O)N/N=C\c1ccccc1O = 43.1% (inactive)
COc1cc(/C=N/NC(=O)CCN2c3ccccc3Sc3ccccc32)cc(OC)c1OC = 105% (inactive)
CC(=O)N1N=C(c2ccc(Nc3nc(Nc4ccc(F)cc4)nc(Nc4ccc(Cl)cc4)n3)cc2)CC1c1ccc(N(C)C)cc1 (stereo not drawn) = 51.2% (inactive)
[Cu+].[NH-][C@H]1C[N-]C(=O)[C@H]([C@H]2CCN=C(N)N2)[N-]C(=O)/C(=C\NC(N)=O)[N-]C(=O)[C@H](CNC(=O)C[C@@H](N)CCCN)[N-]C(=O)[C@H](CO)[N-]C1=O = 111% (inactive)
O=C(NCc1ccc(Cn2c(=O)sn(-c3ccc(Cl)cc3)c2=O)cc1)OCc1ccc2c(Cl)cc(Cl)c(O)c2n1 = 109% (inactive)
CCC(=O)Oc1cc(Cl)c(Cl)cc1Cl = 113% (inactive)
COC(=O)/C=C1/SC(N2N=C(c3cccs3)CC2c2ccc(F)cc2)=NC1=O (stereo not drawn) = 21.8% (inactive)
CCN(CC)CC#CCOC(=O)[C@]1(C)CCC[C@]2(C)c3ccc(C(C)C)cc3CC[C@@H]12 = 80.2% (inactive)
O=C(c1cccc(Br)c1)N1CCN(c2ccnc3cc(Cl)ccc23)CC1 = 93.7% (inactive)
Cn1cc(-c2nonc2-c2cn(C)c3ccc(Br)cc23)c2ccccc21 = 29.6% (inactive)
C=CCOc1ccc(/C=C2\SC(=S)N(CCc3ccc(O)cc3)C2=O)cc1 = 114% (inactive)
O=C(NNc1ccccc1)C1CCCN1 (stereo not drawn) = 103% (inactive)
CC1(C)C(N)=Nc2cc(OCCCCN3Cc4ccccc4C3)c(OCC3CC3)cc21 = -62.7% (active)
